assayedTarget: T1, full length recombinant human 2N4R tau (amino acids 1-441) (human, UniProt P10636 1-758)
T1 construct: Bought (rPeptide); recombinant, non-phosphorylated; also called recombinant tau
T1 sequence (P10636 other isoform, or with tags, fused parts or gaps limits assumed): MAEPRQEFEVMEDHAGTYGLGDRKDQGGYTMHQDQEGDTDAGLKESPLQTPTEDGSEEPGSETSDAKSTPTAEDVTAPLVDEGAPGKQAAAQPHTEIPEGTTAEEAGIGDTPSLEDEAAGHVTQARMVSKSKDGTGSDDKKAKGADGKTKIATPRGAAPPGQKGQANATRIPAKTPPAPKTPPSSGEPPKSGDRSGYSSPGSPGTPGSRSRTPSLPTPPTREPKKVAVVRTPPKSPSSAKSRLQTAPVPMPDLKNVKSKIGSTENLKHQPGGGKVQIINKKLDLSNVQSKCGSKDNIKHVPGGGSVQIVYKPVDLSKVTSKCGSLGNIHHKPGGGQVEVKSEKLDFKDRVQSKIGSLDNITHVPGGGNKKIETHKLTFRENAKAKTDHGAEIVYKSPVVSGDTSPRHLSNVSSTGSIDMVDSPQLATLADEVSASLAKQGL
testMethodNotes: SPR Biacore SCK, IgG on Protein A, tau analyte
koff below 0.003 s⁻¹ gives Not fulfilled; koff at or above it gives Fulfilled.

QUERY: Check this binder for koff at or above 0.003 s⁻¹: Clone 33 (VH5Vκ5), humanised variant of clone #28, human IgG1 (antibody, V domains shown, also called VH5VK5) VH: QVQLQESGPGLVKPSETLSLTCTVSGFSLNNYDMSWVRQAPGKGLEWIGTVSTTYRRYYASWAKGRFTISRDNSKNTLDLQMTSLTAEDTATYFCAASGIWGRGTLVTVSS VL: DIQMTQSPSTLSASVGDRVTITCQSSQRVSSSYLAWYQQKPGQPPKRLIFLASTLESGVPSRFSGSGSGTEFTLTISSLQPDDFATYYCAGTYTGSIWAFGGGTKVEIK
RESULT: Fulfilled

QUERY: Check this binder for koff at or above 0.003 s⁻¹: Clone 21 (VH2Vκ5), humanised variant of clone #28, human IgG1 (antibody, V domains shown, also called VH2VK5) VH: QSLQESGPGLVKPSETLSLTCTVSGFSLNNYDMSWVRQAPGKGLEWIGTVSTTYRRYYASWAKGRFTISKTSSTTVDLQMTSLTAEDTATYFCAASGIWGRGTLVTVSS VL: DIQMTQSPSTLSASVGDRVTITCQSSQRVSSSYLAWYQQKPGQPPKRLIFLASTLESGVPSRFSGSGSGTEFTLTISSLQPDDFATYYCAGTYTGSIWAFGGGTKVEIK
RESULT: Fulfilled

QUERY: Check this binder for koff at or above 0.003 s⁻¹: Clone 25 (VH3Vκ5), humanised variant of clone #28, human IgG1 (antibody, V domains shown, also called VH3VK5) VH: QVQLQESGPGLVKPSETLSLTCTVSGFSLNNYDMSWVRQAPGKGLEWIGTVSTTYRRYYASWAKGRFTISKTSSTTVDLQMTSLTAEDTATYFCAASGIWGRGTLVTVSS VL: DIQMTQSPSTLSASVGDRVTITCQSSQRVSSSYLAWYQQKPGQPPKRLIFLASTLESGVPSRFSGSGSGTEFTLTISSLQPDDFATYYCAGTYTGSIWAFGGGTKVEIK
RESULT: Fulfilled

QUERY: Check this binder for koff at or above 0.003 s⁻¹: Clone 20 (VH2Vκ4), humanised variant of clone #28, human IgG1 (antibody, V domains shown, also called VH2VK4) VH: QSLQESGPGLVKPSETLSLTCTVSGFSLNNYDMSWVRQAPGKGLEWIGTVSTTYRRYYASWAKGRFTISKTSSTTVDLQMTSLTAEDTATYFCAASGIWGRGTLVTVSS VL: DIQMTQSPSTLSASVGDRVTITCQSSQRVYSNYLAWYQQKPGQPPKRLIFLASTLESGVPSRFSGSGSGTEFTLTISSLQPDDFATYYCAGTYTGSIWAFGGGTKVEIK
RESULT: Not fulfilled
